Kindly supply the reported max activity values for the records listed here.
# Method Summary: inhibitors of Clostridioides difficile proliferation – 4-point retest, confirmation (AID 1224921);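 note: plate controls were DMSO wells for no effect and levofloxacin 16 µg/mL wells for full effect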
# Protocol Conditions: Clostridioides difficile clinical isolate growth, OD600, 24 h, active compounds read low; at 30 µM unless noted
Hit rate of the full screen: of about 1,400 compounds, about 350 (25%) were called active. About 2% were inconclusive and are not listed. A selection follows. Entries with a potency or affinity are not part of this list.

# Structure As Smiles, max activity
measured = [
    ("COc1cccc(C#Cc2ccc3c(c2)O[C@@H](CN(C)C)[C@H](C)CN([C@@H](C)CO)S3(=O)=O)c1", "41.9% (inactive)"),
    ("C[C@H]1CN([C@@H](C)CO)S(=O)(=O)c2ccc(C#Cc3ccccc3F)cc2O[C@@H]1CN(C)C", "20.5% (inactive)"),
]

Please go through the list and note max activity for each compound.
1. O=C(C[C@@H]1C[C@@H]2c3cc(NC(=O)CC4CC4)ccc3O[C@@H]2[C@@H](CO)O1)NCc1cc(F)ccc1F
2. C[C@@H]1CN([C@@H](C)CO)S(=O)(=O)c2ccc(C#Cc3cccc(F)c3)cc2O[C@@H]1CN(C)C
3. C[C@@H]1CN([C@H](C)CO)C(=O)c2ccccc2-c2ccccc2CO[C@H]1CN(C)S(=O)(=O)c1ccsc1

*A*
1: 18.5% (inactive); 2: 8.04% (inactive); 3: 29% (inactive)
